Every entry's value here was drawn from patent US8871753B2.

# Target Entity: Recombinant Human Anaplastic Lymphoma Kinase (Homo sapiens)
# Construct: purchased Invitrogen, Carlsbad, Calif
# Sequence (Q9UM73 19-1620): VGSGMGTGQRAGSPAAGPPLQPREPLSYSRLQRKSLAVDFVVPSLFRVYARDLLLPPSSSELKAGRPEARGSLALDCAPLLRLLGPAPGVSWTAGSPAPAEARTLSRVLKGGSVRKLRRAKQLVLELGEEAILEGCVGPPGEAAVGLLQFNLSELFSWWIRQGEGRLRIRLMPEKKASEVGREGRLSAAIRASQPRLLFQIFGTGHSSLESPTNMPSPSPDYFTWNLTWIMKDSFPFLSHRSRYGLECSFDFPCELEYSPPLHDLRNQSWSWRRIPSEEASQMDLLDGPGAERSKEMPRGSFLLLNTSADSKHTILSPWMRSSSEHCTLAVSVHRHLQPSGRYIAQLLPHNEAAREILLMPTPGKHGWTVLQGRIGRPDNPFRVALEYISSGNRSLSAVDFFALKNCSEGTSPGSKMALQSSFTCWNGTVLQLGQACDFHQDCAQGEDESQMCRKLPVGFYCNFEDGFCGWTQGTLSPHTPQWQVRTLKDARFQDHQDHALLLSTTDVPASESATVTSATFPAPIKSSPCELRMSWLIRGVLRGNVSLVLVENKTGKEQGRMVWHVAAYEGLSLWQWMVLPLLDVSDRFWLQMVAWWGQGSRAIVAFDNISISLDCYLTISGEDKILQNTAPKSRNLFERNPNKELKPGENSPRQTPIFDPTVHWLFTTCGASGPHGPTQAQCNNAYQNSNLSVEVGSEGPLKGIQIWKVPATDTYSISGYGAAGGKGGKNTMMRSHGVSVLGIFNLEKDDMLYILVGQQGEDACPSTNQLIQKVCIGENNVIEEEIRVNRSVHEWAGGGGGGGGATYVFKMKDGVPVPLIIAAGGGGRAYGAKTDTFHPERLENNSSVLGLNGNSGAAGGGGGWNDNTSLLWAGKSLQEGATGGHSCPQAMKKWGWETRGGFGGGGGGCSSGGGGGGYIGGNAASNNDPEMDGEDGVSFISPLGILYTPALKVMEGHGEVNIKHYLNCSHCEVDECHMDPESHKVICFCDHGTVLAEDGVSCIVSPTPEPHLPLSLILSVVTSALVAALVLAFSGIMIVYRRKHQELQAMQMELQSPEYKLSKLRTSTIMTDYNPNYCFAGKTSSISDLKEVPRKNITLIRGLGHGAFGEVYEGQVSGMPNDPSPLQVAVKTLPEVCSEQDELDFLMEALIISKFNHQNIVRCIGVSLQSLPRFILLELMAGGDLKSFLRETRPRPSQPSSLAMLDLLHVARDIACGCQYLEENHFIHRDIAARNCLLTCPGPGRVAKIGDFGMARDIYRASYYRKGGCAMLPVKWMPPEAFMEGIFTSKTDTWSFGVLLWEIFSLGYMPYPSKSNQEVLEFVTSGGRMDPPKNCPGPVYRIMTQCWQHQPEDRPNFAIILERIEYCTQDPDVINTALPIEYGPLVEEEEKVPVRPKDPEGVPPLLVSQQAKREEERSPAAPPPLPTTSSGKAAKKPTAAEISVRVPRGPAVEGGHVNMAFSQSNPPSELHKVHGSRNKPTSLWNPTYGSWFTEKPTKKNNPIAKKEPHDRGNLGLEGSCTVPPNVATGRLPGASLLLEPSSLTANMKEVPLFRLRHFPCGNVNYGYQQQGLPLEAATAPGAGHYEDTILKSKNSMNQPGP
# Test Summary: ALK HTRF kinase assay
# Type: biochemical
# Measurement Parameters: Table D1; 90 μM ATP
Counter-ions that a name gives are not always drawn.
Recorded Metric: IC50 (nM)
One number for each entry, in nM.

Known IC50 results, listed for orientation:
Clc1cnc2nc1Nc1cccc(c1)CNCc1cccc(c1)N2 [Example D73, bis(trifluoroacetate)] = 1330
COC(=O)c1cc2cc(c1)OCCSc1cccc(c1)Nc1nc(ncc1Cl)N2 [Example D43, trifluoroacetate] = 390

Prompt: Given the entry O=C(Nc1cc2cc(c1)OCCSc1cccc(c1)Nc1nc(ncc1Cl)N2)c1cccs1 [Example D63, trifluoroacetate] , what IC50 was observed with Recombinant Human Anaplastic Lymphoma Kinase (Homo sapiens)?
Completion: 610

====

# Target Entity: human JAK3 (a.a. 781-1124) (Homo sapiens)
# Construct: JAK3 (a.a. 781-1124); His tag (N); made in house; host or cells: insect cells (baculovirus)
# Test Summary: In vitro JAK kinase assay (HTRF, phosphorylation of a biotinylated peptide), JAK3
# Type: biochemical
# Measurement Parameters: Table B1
Counter-ions that a name gives are not always drawn.
Recorded Metric: pIC50
Give bare numbers, as −log10 of the molar value.

Answer for every listed entry: what is its pIC50? The entries follow.
1. O=C(NCCNS(=O)(=O)c1ccc(Cl)nc1)Nc1ccc2cc1CCc1cccc(c1)Nc1ncc(Cl)c(n1)N2 [Example B331, trifluoroacetate]
2. O=C(Nc1nc(C(=O)O)cs1)Nc1ccc2cc1CCc1cccc(c1)Nc1ncc(Cl)c(n1)N2 [Example B250, trifluoroacetate]
3. O=C(Nc1ccc2cc1CCc1cccc(c1)Nc1ncc(Cl)c(n1)N2)N[C@H]1CCN(C(=O)c2ccncc2)C1 [Example B234, bis(trifluoroacetate)]

Completion:
1: 8.57; 2: 8.20; 3: 7.40

====

# Target Entity: human JAK2 (a.a. 828-1132) (Homo sapiens, UniProt O60674)
# Construct: JAK2 (a.a. 828-1132); His tag (N); made in house; host or cells: insect cells (baculovirus)
# Sequence (O60674 828-1132): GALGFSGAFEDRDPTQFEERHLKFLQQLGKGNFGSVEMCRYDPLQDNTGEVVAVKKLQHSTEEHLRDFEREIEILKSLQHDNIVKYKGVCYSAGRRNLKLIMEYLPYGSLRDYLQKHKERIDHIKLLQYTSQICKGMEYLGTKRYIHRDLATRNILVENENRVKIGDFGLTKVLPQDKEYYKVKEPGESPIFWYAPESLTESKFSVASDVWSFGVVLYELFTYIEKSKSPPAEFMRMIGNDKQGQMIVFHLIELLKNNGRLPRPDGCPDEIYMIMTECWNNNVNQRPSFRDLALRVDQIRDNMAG
# Test Summary: In vitro JAK kinase assay (HTRF, phosphorylation of a biotinylated peptide), JAK2
# Type: biochemical
# Measurement Parameters: method AA1 (30 μM ATP) or AA2 (1000 μM ATP), not stated per value
Where a name gives a salt, the structure may show the parent alone.
Recorded Metric: pIC50
Answers are plain numbers, as −log10 of the molar value.

// below: answered molecules
Clc1cnc2nc1Nc1cccc(c1)/C=C\c1cccc(c1)N2 [Example A1, trifluoroacetate] = 8.57
Clc1cnc2nc1Nc1cccc(c1)CCCc1cccc(c1)N2 [Example A4] = 7.27
O=C(CC1CCN(C(=O)Nc2ccccc2)CC1)Nc1ccc2cc1CCc1cncc(c1)Nc1ncc(Cl)c(n1)N2 [Example A77, bis(trifluoroacetate)] = 9.15

# per-item lookup of pIC50; items listed below
1. O=C(CCNC(=O)Nc1ccccc1)Nc1ccc2cc1CCc1cccc(c1)Nc1ncc(Cl)c(n1)N2 [Example A67, trifluoroacetate]
2. NS(=O)(=O)N1CCC(CC(=O)Nc2ccc3cc2CCc2cccc(c2)Nc2ncc(Cl)c(n2)N3)CC1 [Example A75, trifluoroacetate]
3. Cc1ccoc1C(=O)N1CCC(CC(=O)Nc2ccc3cc2CCc2cncc(c2)Nc2ncc(Cl)c(n2)N3)CC1 [Example A161, bis(trifluoroacetate)]
4. O=C(CC1CCNCC1)Nc1ccc2cc1CCc1cncc(c1)Nc1ncc(Cl)c(n1)N2 [Example A71, tris(trifluoroacetate)]

Completion:
1: 8.55; 2: 9.70; 3: 6.52; 4: 7.16

====

# Target Entity: human JAK2 (a.a. 828-1132) (Homo sapiens)
# Construct: JAK2 (a.a. 828-1132); His tag (N); made in house; host or cells: insect cells (baculovirus)
# Test Summary: In vitro JAK kinase assay (HTRF, phosphorylation of a biotinylated peptide), JAK2
# Type: biochemical
# Measurement Parameters: Table D1
Consider the following molecules; for each one, report its IC50.
Give bare numbers, in µM.

Some molecules with known IC50 results, for comparison:
CC(=O)N1CCN(c2ccc3cc2CCc2cccc(c2)Nc2ncc(Cl)c(n2)N3)CC1 [Example D85, bis(trifluoroacetate)] = 0.0066
O=C(c1cc2cc(c1)OCCSc1cccc(c1)Nc1nc(ncc1Cl)N2)N1CCN(c2ccccc2)CC1 [Example D53, bis(trifluoroacetate)] = 0.034
O=C(CC1CN(c2nc3cccnc3o2)C1)Nc1ccc2cc1CCc1cncc(c1)Nc1ncc(Cl)c(n1)N2 [Example D141, tris(trifluoroacetate)] = 0.106
O=C(CC1CCN(c2nncs2)C1)Nc1ccc2cc1CCc1cncc(c1)Nc1ncc(Cl)c(n1)N2 (stereo not drawn) [Example D155, tris(trifluoroacetate)] = 0.12

Prompt: Look up IC50 for this molecule: N#Cc1ccc(NC(=O)N2CC[C@@H](CC(=O)Nc3ccc4cc3CCc3cncc(c3)Nc3ncc(Cl)c(n3)N4)C2)cc1 [Example D114, bis(trifluoroacetate)]
Completion: 0.083

====

# Target Entity: human JAK1 (a.a. 837-1142) (Homo sapiens, UniProt P23458)
# Construct: human JAK1 (a.a. 837-1142); His tag (N); made in house; host or cells: insect cells (baculovirus)
# Sequence (P23458 849-1154): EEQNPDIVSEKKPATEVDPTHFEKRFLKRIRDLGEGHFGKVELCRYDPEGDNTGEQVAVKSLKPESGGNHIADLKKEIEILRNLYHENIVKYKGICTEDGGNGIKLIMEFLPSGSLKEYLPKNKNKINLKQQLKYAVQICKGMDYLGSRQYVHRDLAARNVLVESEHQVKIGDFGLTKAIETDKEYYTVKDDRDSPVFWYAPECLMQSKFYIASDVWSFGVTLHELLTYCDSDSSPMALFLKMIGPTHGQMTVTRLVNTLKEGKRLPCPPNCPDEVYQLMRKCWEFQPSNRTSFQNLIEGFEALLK
# Test Summary: In vitro JAK kinase assay (HTRF, phosphorylation of a biotinylated peptide), JAK1
# Type: biochemical
# Measurement Parameters: Table B1; read-out: JAK1 IC50
Counter-ions that a name gives are not always drawn.
Recorded Metric: pIC50
Numbers only, as −log10 of the molar value.

For the 3 molecules below, give their pIC50 values.
1. O=C(Nc1ccc(Cl)nc1)Nc1ccc2cc1CCc1cccc(c1)Nc1ncc(Cl)c(n1)N2 [Example B121, bis(trifluoroacetate)]
2. Nc1ccc2cc1CCc1cccc(c1)Nc1ncc(Cl)c(n1)N2 [Example B19, dihydrochloride]
3. O=C(Nc1ccc2cc1CCc1cncc(c1)Nc1ncc(Cl)c(n1)N2)N[C@H]1CCN(C(=O)c2cn[nH]c2)C1 [Example B267, bis(trifluoroacetate)]

Completion:
[8.66, 8.89, 7.57]

====

# Target Entity: Recombinant Human Anaplastic Lymphoma Kinase (Homo sapiens)
# Construct: purchased Invitrogen, Carlsbad, Calif
# Test Summary: ALK HTRF kinase assay
# Format: biochemical
# Measurement Parameters: compound at 500 nM or 1 mM; 90 μM ATP
Structures can show the parent of a compound that is named as a salt.
Recorded Metric: ALK % of inhibition at a concentration of 500 nM or 1 mM (%)
Give bare numbers, in %.

Examples with their reported ALK % of inhibition at a concentration of 500 nM or 1 mM follow.
CSc1ccccc1NC(=O)N1CCC(C(=O)Nc2ccc3cc2CCc2cccc(c2)Nc2ncc(Cl)c(n2)N3)CC1 [Example A39, trifluoroacetate] = 39
NCC(=O)Nc1ccc2cc1CCc1cccc(c1)Nc1ncc(Cl)c(n1)N2 [Example A107, bis(trifluoroacetate)] = 39
CC(C)(C)OC(=O)N1CCC(CC(=O)Nc2ccc3cc2CCc2cncc(c2)Nc2ncc(Cl)c(n2)N3)CC1 [Example A70, bis(trifluoroacetate)] = 18
O=C(CC1CCN(C(=O)c2cnccn2)CC1)Nc1ccc2cc1CCc1cncc(c1)Nc1ncc(Cl)c(n1)N2 [Example A102, tris(trifluoroacetate)] = 21

Would you mind listing ALK % of inhibition at a concentration of 500 nM or 1 mM for each of the following compounds?
1. Cc1cc(C(=O)N2CCC(CC(=O)Nc3ccc4cc3CCc3cncc(c3)Nc3ncc(Cl)c(n3)N4)CC2)no1 [Example A101, bis(trifluoroacetate)]
2. Cc1cc(N2CCC(CC(=O)Nc3ccc4cc3CCc3cccc(c3)Nc3ncc(Cl)c(n3)N4)CC2)no1 [Example A248, trifluoroacetate]

Completion:
[29, 50]

====

# Target Entity: human JAK3 (a.a. 781-1124) (Homo sapiens, UniProt P52333)
# Construct: JAK3 (a.a. 781-1124); His tag (N); made in house; host or cells: insect cells (baculovirus)
# Sequence (P52333 781-1124): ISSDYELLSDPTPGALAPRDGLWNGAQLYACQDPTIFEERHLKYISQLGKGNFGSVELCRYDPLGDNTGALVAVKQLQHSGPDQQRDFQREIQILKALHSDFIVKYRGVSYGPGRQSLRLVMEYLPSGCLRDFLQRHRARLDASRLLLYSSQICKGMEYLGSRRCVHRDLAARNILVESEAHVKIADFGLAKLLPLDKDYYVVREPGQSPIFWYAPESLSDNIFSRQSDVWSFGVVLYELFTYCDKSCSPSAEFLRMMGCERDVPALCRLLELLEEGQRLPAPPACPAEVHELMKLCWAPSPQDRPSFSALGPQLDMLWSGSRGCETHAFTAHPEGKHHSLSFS
# Test Summary: In vitro JAK kinase assay (HTRF, phosphorylation of a biotinylated peptide), JAK3
# Format: biochemical
# Measurement Parameters: Table B1
Where a name gives a salt, the structure may show the parent alone.
Recorded Metric: IC50 (µM)
One number for each entry, in µM.

O=C(NCc1ccco1)Nc1ccc2cc1CCc1cncc(c1)Nc1ncc(Cl)c(n1)N2 [Example B134, bis(trifluoroacetate)] = 0.023
O=C(Nc1ccc2cc1CCc1cccc(c1)Nc1ncc(Cl)c(n1)N2)Nc1ccccc1OC(F)(F)F [Example B131, trifluoroacetate] = 0.063

Let us move to another entry and its IC50.
Prompt: Quick check: IC50 of O=C(NCCO)Nc1ccc2cc1CCc1cccc(c1)Nc1ncc(Cl)c(n1)N2 [Example B241, trifluoroacetate] ?
Completion: 0.01

====

Record form. Attribute: ALK % of inhibition at a concentration of 500 nM or 1 mM. Fill in for each entry.
# Target Entity: Recombinant Human Anaplastic Lymphoma Kinase (Homo sapiens)
# Construct: purchased Invitrogen, Carlsbad, Calif
# Test Summary: ALK HTRF kinase assay
# Type: biochemical
# Measurement Parameters: compound at 500 nM or 1 mM; 90 μM ATP
Structures can show the parent of a compound that is named as a salt.
Numbers only, in %.

Guide cases for ALK % of inhibition at a concentration of 500 nM or 1 mM, answers given:
O=C(Nc1ccc2cc1CCc1cccc(c1)Nc1ncc(Cl)c(n1)N2)[C@@H]1CCCN1C(=O)Nc1ccccc1 [Example A69, trifluoroacetate] = 27
O=C(Nc1ccc2cc1CCc1cccc(c1)Nc1ncc(Cl)c(n1)N2)C1CCCN(C(=O)NC2CCCC2)C1 (stereo not drawn) [Example A62, trifluoroacetate] = 26
CC(C)(C)C(=O)N1CCC(CC(=O)Nc2ccc3cc2CCc2cccc(c2)Nc2ncc(Cl)c(n2)N3)CC1 [Example A88, trifluoroacetate] = 22
Cc1ccoc1C(=O)N1CCC(CC(=O)Nc2ccc3cc2CCc2cncc(c2)Nc2ncc(Cl)c(n2)N3)CC1 [Example A161, bis(trifluoroacetate)] = 27
O=C(Nc1ccc2cc1CCc1cccc(c1)Nc1ncc(Cl)c(n1)N2)C1CCN(C(=S)Nc2ccccc2)CC1 [Example A43, trifluoroacetate] = 32

We next turn to a different compound, shown below.
Prompt: What ALK % of inhibition at a concentration of 500 nM or 1 mM appears in the records for this compound with Recombinant Human Anaplastic Lymphoma Kinase (Homo sapiens)? Cc1cc(C(=O)N2CCC(CC(=O)Nc3ccc4cc3CCc3cccc(c3)Nc3ncc(Cl)c(n3)N4)CC2)n[nH]1 [Example A175, bis(trifluoroacetate)]
Completion: 28
